# target.or.system: Plasmepsin II (Plasmodium falciparum)
# assay.method.text: Inhibition of recombinant Plasmodium falciparum plasmepsin 2 expressed in Escherichia coli using DABCYL-Glu-Arg-Nle-Phe-Leu-Ser-Phe-Pro-EDANS as substrate at 10 uM incubated for 40 mins prior to substrate addition measured after 10 mins by FRET-based fluorometric analysis
Rule: Satisfied for inhibition not less than 60%, Not satisfied for anything less.

In [3]: df
Out[3]:
                                   molecule          label
0  N=C(S)NN/C(=C\c1nc(-c2ccccn2)cc2ccccc12)c1ccc(Cl)cc1  Not satisfied
1  O=C(CN(c1cccc(Br)c1)S(=O)(=O)c1ccccc1)Nc1ccc(CSc2ccccc2)cc1  Not satisfied
2  OC(CNCc1ccccc1)Cn1c2ccc(Cl)cc2c2cc(Cl)ccc21 (stereo not given)  Not satisfied
3  Cc1ccccc1N/C(=N\N=C/c1ccc2ccc3ccc(/C=N\N=C(/Nc4ccccc4C)c4ccccn4)nc3c2n1)c1ccccn1      Satisfied

From: ChEMBL document CHEMBL2346530
